Where do these numbers come from? They come from patent US20220281976A1.

# Measured on: T1, human CD33 (human, UniProt P20138 18-364)
# T1 construct: CD33 on human primary dendritic cells, macrophages, monocytes and T cells and on CHO cells expressing recombinant human CD33; also called Siglec-3; hCD33
# Assay remarks: flow cytometry, human primary dendritic cells;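 further: binding of anti-CD33 antibodies (10 ug/ml, 1 h on ice) to human primary dendritic cells, detected with a PE-labelled secondary antibody, reported as flow cytometry MFI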
DC MFI by entry:
Output: the number by itself.

C-13 (antibody, V domains shown, human IgG1) VH: EVQLVESGGGLVQPGGSLRLSCAASGFTFSSYWMSWVRQAPGKGLEWVANIKSDGSEKYYVDSVKGRFTISRDNAKNSLYLQMNSLRAEDTAVYYCARGPSYLASGAFDLWGRGTLVTVSS VL: EIVLTQSPATLSLSPGERATLSCRASQSVSSYLAWYQQKPGQAPRLLIYDASNRATGIPARFSGSGSGTDFTLTISSLEPEDFAVYYCQQAYVVPPRTFGGGTKVEIK
1740
C-36 (antibody, V domains shown, human IgG1) VH: EVQLVESGGGLVQPGGSLRLSCAASGFTFSSYWMSWVRQAPGKGLEWVANIKQDGSEKYYVDSVKGRFTISRDNAKNSLYLQMNSLRAEDTAVYYCARDGQYYPAYGMDVWGQGTTVTVSS VL: EIVMTQSPATLSVSPGERATLSCRASQSVSSNLAWYQQKPGQAPRLLIYGASTRATGIPARFSGSGSGTEFTLTISSLQSEDFAVYYCQQYFDLPTFGGGTKVEIK
1160

Now consider a different binder.
Task item: Which DC MFI value belongs to C-16 (antibody, V domains shown, human IgG1) VH: EVQLVESGGGLVQPGGSLRLSCAASGFTFSSYWMSWVRQAPGKGLEWVANINQDGSEKYYVDSVKGRFTISRDNAKNSLYLQMNSLRAEDTAVYYCAREGSDRHPFDYWGQGTLVTVSS VL: DIQMTQSPSSLSASVGDRVTITCRASQSISSYLNWYQQKPGKAPKLLIYAASSLQSGVPSRFSGSGSGTDFTLTISSLQPEDFATYYCQQAYLVPLTFGGGTKVEIK ?
Reply: 1750
